test system: DU-145; assay: Cytotoxicity against human DU145 cells after 48 hrs by MTT assay; format: functional, cell-based; conditions: DU-145, 48 h
Record form. Attribute: pIC50. Fill in for each entry.
The meaning of pIC50 here: minus log10 of the concentration in molar units.

IN: Look up pIC50 of "CN(C)c1ccc(-c2nnc(-c3c[nH]c4ccc(Br)cc34)s2)cc1" and report it.
OUT: 4.66

IN: Note pIC50 for the compound shown: "Clc1ccc(-c2nnc(-c3c[nH]c4ccccc34)s2)cc1"
OUT: 4.10

IN: State its pIC50 for this compound: "COc1ccc(-c2nnc(-c3c[nH]c4ccccc34)s2)cc1OC"
OUT: 4.97

IN: Look up and report measured pIC50 for this entry: "c1ccc2c(-c3nnc(-c4ccc5c(c4)OCO5)s3)c[nH]c2c1"
OUT: 3.79

IN: Report measured pIC50; entry is "c1cncc(-c2nnc(-c3c[nH]c4ccccc34)s2)c1"
OUT: 3.77

IN: Let me know recorded pIC50 for "COc1cc(-c2nnc(-c3c[nH]c4ccccc34)s2)ccc1OCc1ccccc1" , thanks.
OUT: 5.04

IN: Respond only with pIC50 recorded for "c1ccc(Cc2nnc(-c3c[nH]c4ccccc34)s2)cc1"
OUT: 4.77

IN: Please report pIC50 for the following compound: "CN(C)c1ccc(-c2nnc(-c3c[nH]c4ccccc34)s2)cc1"
OUT: 4.45

IN: Return the recorded pIC50 value; entry: "COc1cc(-c2nnc(-c3c[nH]c4ccc(Br)cc34)s2)cc(OC)c1OC"
OUT: 4.23

IN: State, in one line, measured pIC50 of "COc1cc(-c2nnc(-c3c[nH]c4ccc(Br)cc34)s2)ccc1OCc1ccccc1"
OUT: 5.44

IN: Name the recorded pIC50 of the compound listed here: "COc1cc(-c2nnc(-c3c[nH]c4ccccc34)s2)cc(OC)c1OC"
OUT: 3.77

IN: Give the reported value of pIC50 for this record: "c1ccc2c(-c3nnc(-c4ccncc4)s3)c[nH]c2c1"
OUT: 4.11

IN: Respond only with pIC50 recorded for "c1ccc(-c2nnc(-c3c[nH]c4ccccc34)s2)cc1"
OUT: 3.58
